Tested on: Ba/F3 cells expressing EGFR S768I
assay_text: Transduced Ba/F3 cell proliferation inhibitory activity, EGFR S768I
Assay type: cell-based
reported_conditions: Mus musculus, BaF3, 72 hours
This listing pairs compounds with measured GI50.
value_type: GI50

substance_smiles: C=CC(=O)N1CCC(Oc2cc3c(Nc4cc(-c5ccco5)ccc4OC)ncnc3cc2OC)CC1
target_or_system: Ba/F3 cells expressing EGFR S768I
result: ≤ 50 nM
--
substance_smiles: COc1cc2ncnc(Nc3cc(-c4ccco4)ccc3OC)c2cc1NC(=O)/C=C/[C@H]1CCCN1C
target_or_system: Ba/F3 cells expressing EGFR S768I
result: ≤ 50 nM
--
substance_smiles: COc1cc2ncnc(Nc3cc(-c4ccco4)ccc3OC)c2cc1NC(=O)/C(F)=C\[C@H]1CCCN1C
target_or_system: Ba/F3 cells expressing EGFR S768I
result: ≤ 50 nM
--
substance_smiles: C=CC(=O)N1CCC(Oc2cc3c(Nc4cc(-c5ccc(F)cc5F)ccc4OC)ncnc3cc2OC)CC1
target_or_system: Ba/F3 cells expressing EGFR S768I
result: 50 to 100 nM

These measurements were taken from patent US20240246940A1.
